Numbers sourced from PubChem BioAssay AID1159580.

- EXPERIMENTAL_PROTOCOL: chemical genetic growth profiling, strain panel (AID 1159580);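 also: tested at 20 µM; growth read once vehicle control cultures reached saturation at 30 °C; 1 = growth at the plate median or of vehicle wells; lower values mean less growth of the strain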
- CONDITION_DETAILS: S. cerevisiae deletion strains, growth OD, locus YPL256C, strain CLN2, hits give low values
Out of some 5,500 compounds screened, about 2,000 (36%) were called active. Another 18% or so got no clear call; they are omitted. The list shows a part of the results.
normalized growth for assorted compounds

QUERY: Return value of normalized growth for input COC(=O)C[C@H]1C(C)(C)[C@@H](O)[C@@H]2CC3=C4CC(O)O[C@@H](c5ccoc5)[C@]4(C)CCC3[C@@]1(C)C2=O (some centres undefined) , no commentary.
RESULT: 1.01 (inactive)

QUERY: Return value of normalized growth for input COC1CC(O[C@H]2CC[C@]3(C=O)C4CC[C@]5(C)C(C6=CC(=O)OC6)CC[C@]5(O)C4CC[C@]3(O)C2)OC(C)C1O (some centres undefined) , no commentary.
RESULT: 1.01 (inactive)

QUERY: Return value of normalized growth for input C[C@@H]1O[C@@H](O[C@H]2CC[C@]3(C=O)C4CC[C@]5(C)[C@@H](C6=CC(=O)OC6)CC[C@]5(O)C4CC[C@]3(O)C2)[C@H](O)[C@H](O)[C@H]1O (some centres undefined) , no commentary.
RESULT: 0.987 (inactive)

QUERY: Return value of normalized growth for input COc1ccc(-c2cc(=O)c3c(O)cc(O)cc3o2)cc1O , no commentary.
RESULT: 0.993 (inactive)

QUERY: Return value of normalized growth for input CCn1nc(C(=O)O)c(=O)c2cc3c(cc21)OCO3 , no commentary.
RESULT: 0.998 (inactive)

Continuing:
QUERY: Return value of normalized growth for input O=c1c(-c2ccc(O)cc2)coc2c(C3O[C@H](CO)[C@@H](O)[C@H](O)[C@H]3O)c(O)ccc12 (some centres undefined) , no commentary.
RESULT: 0.979 (inactive)

QUERY: Return value of normalized growth for input O=c1c2cc(O)c(O)cc2oc2cc(O)c(C3O[C@H](CO)[C@H](O)[C@@H](O)[C@H]3O)c(O)c12 (some centres undefined) , no commentary.
RESULT: 1 (inactive)

QUERY: Return value of normalized growth for input COc1ccc(-c2cc(=O)c3c(O)c(OC)c(OC)c(OC)c3o2)cc1OC , no commentary.
RESULT: 0.971 (inactive)

QUERY: Return value of normalized growth for input C[C@]12CCC3C(CC[C@]4(O)C[C@@H](O)CC[C@]34C=O)[C@@]1(O)CCC2C1=CC(=O)OC1 (some centres undefined) , no commentary.
RESULT: 0.974 (inactive)

====

- EXPERIMENTAL_PROTOCOL: chemical genetic growth profiling, strain panel (AID 1159580)
- CONDITION_DETAILS: S. cerevisiae deletion strains, growth OD, locus YEL003W, strain gim4, hits give low values
The whole screen tested about 5,500 compounds, of which about 2,000 (36%) were called active. Not shown: some 18% with an inconclusive outcome. This is one part of the list.
VALUE_KIND: normalized growth
No unit in the answer, only the number.

Below are worked cases with known answers.
QUERY: Return value of normalized growth for input O=C(O)C1=CC(=C(c2ccc(O)c(C(=O)O)c2)c2ccc(O)c(C(=O)O)c2)C=CC1=O , no commentary.
RESULT: 0.973

QUERY: Return value of normalized growth for input CC[C@@]1(O)C(=O)OCc2c1cc1n(c2=O)Cc2cc3cc(O)ccc3nc2-1 , no commentary.
RESULT: 0.995

Continuing:
QUERY: Return value of normalized growth for input CC(C)C[C@@H](NC(=O)OCC1c2ccccc2-c2ccccc21)C(=O)O , no commentary.
RESULT: 0.999

====

- EXPERIMENTAL_PROTOCOL: chemical genetic growth profiling, strain panel (AID 1159580)
- CONDITION_DETAILS: S. cerevisiae deletion strains, growth OD, locus YDR137W, strain rgp1, hits give low values
Out of some 5,500 compounds screened, about 2,000 (36%) were called active. Not shown: some 18% with an inconclusive outcome. This is one part of the list.
VALUE_KIND: normalized growth

Below are worked cases with known answers.
QUERY: Return value of normalized growth for input Cc1c(C(N)=O)cc([N+](=O)[O-])cc1[N+](=O)[O-] , no commentary.
RESULT: 1.04 (inactive)

QUERY: Return value of normalized growth for input CC(C)(C)NCC(O)COc1cccc2c1C[C@H](O)[C@H](O)C2 (some centres undefined) , no commentary.
RESULT: 1.01 (inactive)

Could you now consider this next compound?
QUERY: Return value of normalized growth for input COC(=O)N/N=C\c1c[n+]([O-])c2ccccc2[n+]1[O-] , no commentary.
RESULT: 1.01 (inactive)

====

normalized growth for assorted molecules
- EXPERIMENTAL_PROTOCOL: chemical genetic growth profiling, strain panel (AID 1159580);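 also: tested at 20 µM; growth read once vehicle control cultures reached saturation at 30 °C; 1 = growth at the plate median or of vehicle wells; lower values mean less growth of the strain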
- CONDITION_DETAILS: S. cerevisiae deletion strains, growth OD, locus YCL029C, strain bik1, hits give low values
About 2,000 (36%) of roughly 5,500 compounds were called active. Inconclusive results (about 18%) are left out. Some of the results follow.
No unit in the answer, only the number.

QUERY: Return value of normalized growth for input CC(=O)Oc1ccccc1C(=O)Oc1ccccc1C(=O)O , no commentary.
RESULT: 0.98

====

normalized growth for assorted molecules
- EXPERIMENTAL_PROTOCOL: chemical genetic growth profiling, strain panel (AID 1159580);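 also: tested at 20 µM; growth read once vehicle control cultures reached saturation at 30 °C; 1 = growth at the plate median or of vehicle wells; lower values mean less growth of the strain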
- CONDITION_DETAILS: S. cerevisiae deletion strains, growth OD, locus YIR030C, strain dcg1, hits give low values
Out of some 5,500 compounds screened, about 2,000 (36%) were called active. About 18% were inconclusive and are not listed. The list shows a part of the results.
No unit in the answer, only the number.

QUERY: Return value of normalized growth for input NC[C@H]1O[C@H](OC2[C@@H](N)C[C@@H](N)[C@H](O[C@H]3O[C@H](CO)[C@@H](O)[C@H](N)[C@H]3O)[C@H]2O)[C@H](O)[C@@H](O)[C@@H]1O (stereo partly drawn) , no commentary.
RESULT: 0.99

Continuing:
QUERY: Return value of normalized growth for input C/C=C(\C)C(=O)O[C@@H]1c2c(ccc3ccc(=O)oc23)OC(C)(C)[C@@H]1OC(C)=O , no commentary.
RESULT: 0.994

QUERY: Return value of normalized growth for input CNC[C@H](O)c1cccc(O)c1 , no commentary.
RESULT: 1.01

QUERY: Return value of normalized growth for input C[C@]12CCC3C(CC[C@]4(O)C[C@@H](O)CC[C@]34C=O)[C@@]1(O)CCC2C1=CC(=O)OC1 (stereo partly drawn) , no commentary.
RESULT: 0.975

QUERY: Return value of normalized growth for input CCc1ccc2c(O)c3c(cc2c1C(=O)OC)C(=O)c1c(O)ccc(O)c1C3=O , no commentary.
RESULT: 0.998

QUERY: Return value of normalized growth for input C[C@H]1[C@H](C)CC[C@]2(C(=O)O)CC[C@]3(C)C(=CCC4[C@@]5(C)C[C@@H](O)[C@H](O)[C@@](C)(CO)C5[C@H](O)C[C@]43C)[C@H]12 (stereo partly drawn) , no commentary.
RESULT: 0.971

QUERY: Return value of normalized growth for input C[C@H]1OC(O[C@H]2[C@@H](O)CC(O[C@H]3[C@@H](O)C[C@H](O[C@H]4CC[C@]5(C)C6CC[C@]7(C)[C@@H](C8=CC(=O)OC8)[C@@H](O)C[C@]7(O)[C@@H]6CC[C@@H]5C4)O[C@@H]3C)O[C@@H]2C)C[C@H](O)C1O (stereo partly drawn) , no commentary.
RESULT: 0.989

QUERY: Return value of normalized growth for input CC(=O)Oc1ccccc1C(=O)Oc1ccccc1C(=O)O , no commentary.
RESULT: 0.983

====

- EXPERIMENTAL_PROTOCOL: chemical genetic growth profiling, strain panel (AID 1159580);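 also: tested at 20 µM; growth read once vehicle control cultures reached saturation at 30 °C; 1 = growth at the plate median or of vehicle wells; lower values mean less growth of the strain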
- CONDITION_DETAILS: S. cerevisiae deletion strains, growth OD, locus YDL101C, strain DUN1, hits give low values
Screen size: about 5,500 compounds; about 2,000 (36%) were called active. About 18% were inconclusive and are not listed. The list shows a part of the results.
normalized growth for assorted compounds
No unit in the answer, only the number.

QUERY: Return value of normalized growth for input CCCCC(=O)O[C@]1(C(=O)CO)[C@@H](C)CC2C3CCC4=CC(=O)C=C[C@]4(C)[C@@]3(F)C(O)C[C@@]21C (some centres not stated) , no commentary.
RESULT: 0.961

QUERY: Return value of normalized growth for input O=C1c2ccccc2C(=O)N1CN1CCC(O)(c2ccc(Cl)cc2)CC1 , no commentary.
RESULT: 0.988

QUERY: Return value of normalized growth for input COc1ccc(-c2cc(=O)c3c(O)c(OC)c(O[C@H]4O[C@H](CO[C@@H]5O[C@@H](C)[C@H](O)[C@@H](O)[C@H]5O)[C@@H](O)[C@H](O)[C@H]4O)cc3o2)cc1 , no commentary.
RESULT: 1.02

QUERY: Return value of normalized growth for input Cc1ccc(Sc2nc(C)c([N+](=O)[O-])c(C)c2C#N)cc1 , no commentary.
RESULT: 0.997

Continuing:
QUERY: Return value of normalized growth for input C/C=C(\C)C(=O)O[C@@H]1c2c(ccc3ccc(=O)oc23)OC(C)(C)[C@@H]1OC(C)=O , no commentary.
RESULT: 1.01

QUERY: Return value of normalized growth for input CCC(=O)OCC(=O)C1(OC(=O)CC)C(C)CC2C3CCC4=CC(=O)C=CC4(C)C3(Cl)C(O)CC21C (configuration not stated) , no commentary.
RESULT: 1.01

QUERY: Return value of normalized growth for input FC(F)(F)Sc1ccc(OCc2n[nH]c(=S)n2-c2ccccc2)cc1 , no commentary.
RESULT: 0.981

QUERY: Return value of normalized growth for input Cc1cc(N)c2ccccc2[n+]1CCCCCCCCCC[n+]1c(C)cc(N)c2ccccc21 , no commentary.
RESULT: 0.0584

QUERY: Return value of normalized growth for input CCc1ccc2c(O)c3c(cc2c1C(=O)OC)C(=O)c1c(O)ccc(O)c1C3=O , no commentary.
RESULT: 0.978

QUERY: Return value of normalized growth for input CC(=O)O[C@@H]1c2c(ccc3ccc(=O)oc23)OC(C)(C)[C@@H]1OC(=O)CC(C)C , no commentary.
RESULT: 1

QUERY: Return value of normalized growth for input CC(=O)C1=C(C)Nc2ccccc2S1 , no commentary.
RESULT: 0.938

QUERY: Return value of normalized growth for input CC(=O)c1ccccc1OC(=O)c1c(-c2c(Cl)cccc2Cl)noc1C , no commentary.
RESULT: 1.02

QUERY: Return value of normalized growth for input O=C(Oc1ccccc1C(=O)O)c1ccccc1O , no commentary.
RESULT: 0.98

QUERY: Return value of normalized growth for input CC(=O)Oc1ccccc1C(=O)Oc1ccccc1C(=O)O , no commentary.
RESULT: 0.997

QUERY: Return value of normalized growth for input CC1(C)Oc2ccc3ccc(=O)oc3c2CC1O (configuration not stated) , no commentary.
RESULT: 0.995
